- methodSummary: Cellular Toxicity (caspase-3) Mesangial (AID 660);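 note: combined caspase 3 and 7 activity read by Caspase-Glo luminescence; cells exposed to compound for 16 h before the caspase read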
- studyConditions: mesangial cells, normalized: DMSO 0%, 100 µM tamoxifen 100%; at 91.7 µM (top of the series)
Property: caspase-3 activation; scope: individual compounds
readoutKind: caspase-3 activation (%)

{"compound": "Cc1cccc2sc(N)nc12", "readoutKind": "caspase-3 activation", "recordedResult": -0.691}
{"compound": "CCCCCO", "readoutKind": "caspase-3 activation", "recordedResult": 1.64}
{"compound": "O=C(O)CCSSCCC(=O)O", "readoutKind": "caspase-3 activation", "recordedResult": -0.167}
{"compound": "NC(=O)c1cccc([N+](=O)[O-])c1", "readoutKind": "caspase-3 activation", "recordedResult": 0.906}
{"compound": "O=C1NC(=O)c2cc([N+](=O)[O-])ccc21", "readoutKind": "caspase-3 activation", "recordedResult": -0.781}
{"compound": "OCCO", "readoutKind": "caspase-3 activation", "recordedResult": -0.444}
{"compound": "S=C([S-])NCCNC(=S)[S-].[Zn+2]", "readoutKind": "caspase-3 activation", "recordedResult": -0.549}
{"compound": "CCCCC(C=O)CC (centres undefined)", "readoutKind": "caspase-3 activation", "recordedResult": 0.71}
{"compound": "CCC(C)=O", "readoutKind": "caspase-3 activation", "recordedResult": -0.0673}
{"compound": "CCC=O", "readoutKind": "caspase-3 activation", "recordedResult": -0.374}
{"compound": "O=C(O)c1ccc(Cl)cc1Cl", "readoutKind": "caspase-3 activation", "recordedResult": -1.03}
{"compound": "O=C(O)c1c(Cl)cccc1Cl", "readoutKind": "caspase-3 activation", "recordedResult": 0.0651}
{"compound": "CN(C)CCCNCCCN", "readoutKind": "caspase-3 activation", "recordedResult": -0.219}
{"compound": "Nc1cc(Cl)c(N)c(Cl)c1", "readoutKind": "caspase-3 activation", "recordedResult": -0.0656}
{"compound": "O=Cc1ccccc1Cl", "readoutKind": "caspase-3 activation", "recordedResult": -0.514}
{"compound": "C=CCCCC", "readoutKind": "caspase-3 activation", "recordedResult": -0.265}
{"compound": "C/C=C1\\CC2C=CC1C2 (centres undefined)", "readoutKind": "caspase-3 activation", "recordedResult": -0.567}
{"compound": "NC(N)=S", "readoutKind": "caspase-3 activation", "recordedResult": -0.0158}
{"compound": "CCCOCC(C)O (centres undefined)", "readoutKind": "caspase-3 activation", "recordedResult": 0.289}
{"compound": "ClC/C=C/CCl", "readoutKind": "caspase-3 activation", "recordedResult": 0.143}
{"compound": "CCC(O)C(C)(C)C (centres undefined)", "readoutKind": "caspase-3 activation", "recordedResult": 0.94}
{"compound": "COc1ccc(N=[N+]([O-])c2ccc(OC)cc2)cc1", "readoutKind": "caspase-3 activation", "recordedResult": -3.45}
{"compound": "Cc1ccc(C(=O)O)cc1", "readoutKind": "caspase-3 activation", "recordedResult": -0.126}
{"compound": "CC(=O)OCc1ccco1", "readoutKind": "caspase-3 activation", "recordedResult": -0.525}

Reference for the values: PubChem BioAssay (NCATS)
